- Tested on: CCRIS mutagenicity, Ames/micronucleus/aberration tests
- method-notes: CCRIS mutagenicity studies
- settings: Test System: AMES SALMONELLA TYPHIMURIUM; Strain/Indicator: TA1537; Metabolic Activation: RAT, LIVER, S-9, AROCLOR 1254; Method: PREINCUBATION
Activity calls are given as the source filed them. The rule behind the calls is not given here.
A correct response names exactly one class from active, inactive

CCC[C@]1(O)CC[C@H]2[C@@H]3CC[C@H]4CC(=O)C[C@H](C)[C@]4(C)[C@H]3CC[C@@]21C | inactive
Clc1cccc(Cl)c1Cl | inactive
CC(Cl)CCCC(Cl)CCCC(Cl)CCCC(Cl)CCCC(Cl)CCCC(Cl)CCCl (stereo not drawn) | inactive
COc1cc(NC(C)CCCN)c2ncccc2c1 (stereo not drawn) | active
ClC(Br)Br | inactive
O=c1[nH]c(=O)n([C@H]2C[C@H](O)[C@@H](CO)O2)cc1/C=C/Br | inactive
CCn1c2ccccc2c2cc(N)ccc21 | active

Pending compound:
Q: Query: recorded result category for CC1=CC[C@H]2C(C)=CC[C@@H](C(C)C)[C@@H]2C1 in this test
A: inactive

These data points were gathered from PubChem BioAssay AID1259407.
